Origin of measurements: patent US20120202814A1

Target: human DDX3 (ATPase activity) (Homo sapiens, UniProt O00571)
Construct: made in house; host or cells: E. coli
Sequence (O00571 whole entry): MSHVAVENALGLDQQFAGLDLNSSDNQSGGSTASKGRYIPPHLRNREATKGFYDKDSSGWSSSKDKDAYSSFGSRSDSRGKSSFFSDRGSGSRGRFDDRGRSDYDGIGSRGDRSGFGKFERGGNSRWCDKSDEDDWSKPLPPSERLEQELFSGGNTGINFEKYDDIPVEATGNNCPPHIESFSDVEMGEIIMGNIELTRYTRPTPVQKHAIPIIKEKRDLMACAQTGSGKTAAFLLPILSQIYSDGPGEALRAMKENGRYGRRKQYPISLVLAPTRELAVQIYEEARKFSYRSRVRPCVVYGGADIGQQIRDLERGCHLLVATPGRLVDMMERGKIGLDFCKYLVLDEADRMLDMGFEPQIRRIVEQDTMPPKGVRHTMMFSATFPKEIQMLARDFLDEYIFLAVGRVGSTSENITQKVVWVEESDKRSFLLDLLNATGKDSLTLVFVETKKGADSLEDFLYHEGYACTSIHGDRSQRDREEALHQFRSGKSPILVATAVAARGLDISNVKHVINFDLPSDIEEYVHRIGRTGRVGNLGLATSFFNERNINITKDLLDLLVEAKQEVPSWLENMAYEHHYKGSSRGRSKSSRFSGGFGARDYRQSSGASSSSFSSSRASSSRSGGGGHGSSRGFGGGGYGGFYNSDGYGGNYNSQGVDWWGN
Assay: Human DDX3 ATPase activity assay (luciferase-based luminescence)
Format: biochemical
Settings: DDX3 ATPase activity; read-out: Ki (μM), apparent equilibrium dissociation constant for the inhibitor to the target enzyme DDX3
Experimental endpoint: Ki

The reported human DDX3 (ATPase activity) (Homo sapiens, UniProt O00571) Ki of Cc1[nH]c2ccccc2c1/C=N/Nc1nc(Nc2ccc(F)cc2)nc(N2CCOCC2)n1 [FE-56M] is 0.2 µM

The reported human DDX3 (ATPase activity) (Homo sapiens, UniProt O00571) Ki of Cc1ccc(Nc2nc(N/N=C/c3ccccc3O)nc(N3CCOCC3)n2)cc1Cl [FE-56AM] is 1.6 µM

The reported human DDX3 (ATPase activity) (Homo sapiens, UniProt O00571) Ki of O=C(NCCN1C(=O)/C(=C/c2cccc(F)c2)SC1=S)c1ccccc1O is 4.3 µM
